test system: MEK; assay: Cellular Assay for Measuring MEK Inhibition (inhibition of ERK phosphorylation in C26 cells, Western blot); type: cell-based, murine; conditions: 1 μM; ERK phosphorylation in C26 cells
For each entry below, report its % Inhibition @ 1 μM value.
Note: unit % is implicit; provide only the numeric part.

IN: Tell me measured % Inhibition @ 1 μM for CCC(O)CONC(=O)c1ccc(F)c(F)c1Nc1ccc(I)cc1F (stereo not drawn) please.
OUT: 95.5

IN: State its % Inhibition @ 1 μM for this compound: O=C(NOCC1CC1CO)c1cc(Cl)c(F)c(F)c1Nc1ccc(F)cc1F (stereo not drawn)
OUT: 15.4

IN: Supply recorded % Inhibition @ 1 μM for COCCONC(=O)c1cc(Cl)c(F)c(F)c1Nc1ccc(I)cc1C here.
OUT: 92.7

IN: Identify the reported % Inhibition @ 1 μM for the following entry. O=C(NOCC(O)C(F)(F)F)c1cc(F)c(F)c(F)c1Nc1ccc(I)cc1F (stereo not drawn)
OUT: 99.2

IN: State its % Inhibition @ 1 μM: CC(C)(O)CONC(=O)c1cc(F)c(F)c(F)c1Nc1ccc(I)cc1Cl
OUT: 85.7

IN: Determine its reported % Inhibition @ 1 μM: O=C(NOCCC(O)CO)c1cc(F)c(F)c(F)c1Nc1ccc(I)cc1Cl (stereo not drawn)
OUT: 79.1

IN: # return recorded % Inhibition @ 1 μM for input CCC(O)CONC(=O)c1cc(Br)c(F)c(F)c1Nc1ccc(I)cc1C (stereo not drawn)
OUT: 94.6

IN: Give % Inhibition @ 1 μM for the following compound: O=C(NOCC(O)COc1ccccc1)c1cc(F)c(F)c(F)c1Nc1ccc(I)cc1Cl (stereo not drawn)
OUT: 82.5

IN: Specify % Inhibition @ 1 μM for CC(CO)ONC(=O)c1cc(F)c(F)cc1Nc1ccc(I)cc1F (stereo not drawn) and stop.
OUT: 91.3

###

tested on: MEK; test: Cellular Assay for Measuring MEK Inhibition (inhibition of ERK phosphorylation in C26 cells, Western blot); assay type: cell-based, murine; settings: 1 μM; ERK phosphorylation in C26 cells
Please enter fulfilled where % Inhibition @ 1 μM is greater than or equal to 50%, and not fulfilled where it is lower.

IN: Please tell me: is the compound Cc1cc(I)ccc1Nc1c(C(=O)NOCC(O)CN2CCOCC2)cc(F)c(F)c1F (centres unmarked) at or over 50% in terms of % Inhibition @ 1 μM?
OUT: not fulfilled

IN: Is reported % Inhibition @ 1 μM greater than or equal to 50% here: O=C(NOCC(O)CN1CCOCC1)c1cc(Cl)c(F)c(F)c1Nc1ccc(I)cc1F (centres unmarked)
OUT: fulfilled

IN: Evaluate Cc1cc(I)ccc1Nc1c(C(=O)NOCCC(O)CO)cc(Br)c(F)c1F (centres unmarked) : % Inhibition @ 1 μM at minimum 50%?
OUT: fulfilled

IN: Hi, just wondering whether COCC(O)CONC(=O)c1ccc(F)c(F)c1Nc1ccc(Cl)cc1F (centres unmarked) shows % Inhibition @ 1 μM of 50% or higher.
OUT: fulfilled

IN: Does the reported % Inhibition @ 1 μM for CC(CO)ONC(=O)c1cc(Cl)c(F)c(F)c1Nc1ccc(F)cc1F (centres unmarked) fall at or above the 50% mark?
OUT: not fulfilled

###

system: MEK; experiment: Cellular Assay for Measuring MEK Inhibition (inhibition of ERK phosphorylation in C26 cells, Western blot); format: cell-based, murine; details: 1 μM; ERK phosphorylation in C26 cells
Think of 90% as a floor: if % Inhibition @ 1 μM stands on it or above, it is true (1); beneath it, false (0).

IN: Can O=C(NOCC1(CO)CC1)c1ccc(F)c(F)c1Nc1ccc(I)cc1F be said to have % Inhibition @ 1 μM at or above 90%?
OUT: true (1)

IN: Identify whether the reported % Inhibition @ 1 μM of the following molecule is 90% or greater: O=C(NOCC1CC1CO)c1cc(F)c(F)cc1Nc1ccc(I)cc1F (stereo not drawn)
OUT: true (1)

IN: I'd appreciate it if you could say whether O=C(NOCC1(CO)CC1)c1cc(F)c(F)c(F)c1Nc1ccc(I)cc1F has % Inhibition @ 1 μM at least equal to 90%.
OUT: true (1)

IN: Does the reported % Inhibition @ 1 μM for CC(C)(O)CONC(=O)c1ccc(F)c(F)c1Nc1ccc(Br)cc1F fall at or above the 90% mark?
OUT: false (0)

IN: Assess whether reported % Inhibition @ 1 μM for CC(O)CONC(=O)c1ccc(F)c(F)c1Nc1ccc(F)cc1F (stereo not drawn) sits at 90% or higher.
OUT: false (0)

IN: Say whether Cc1cc(I)ccc1Nc1c(C(=O)NOCC(O)COc2ccccc2)cc(Cl)c(F)c1F (stereo not drawn) shows % Inhibition @ 1 μM of 90% or more.
OUT: true (1)

IN: Reported % Inhibition @ 1 μM at or above 90%? Cc1cc(I)ccc1Nc1c(C(=O)NOCC(C)(C)O)cc(F)c(F)c1F
OUT: true (1)

IN: Would you say CC(C)(CO)CONC(=O)c1ccc(F)c(F)c1Nc1ccc(I)cc1F shows % Inhibition @ 1 μM at minimum 90%?
OUT: true (1)

IN: Is it the case that CC(O)CONC(=O)c1cc(F)c(F)c(F)c1Nc1ccc(I)cc1Cl (stereo not drawn) has % Inhibition @ 1 μM reaching or exceeding 90%?
OUT: true (1)

###

tested on: MEK; test: Cellular Assay for Measuring MEK Inhibition (inhibition of ERK phosphorylation in C26 cells, Western blot); type: cell-based, murine; details: 1 μM; ERK phosphorylation in C26 cells
Record form. Attribute: % Inhibition @ 1 μM. Fill in for each entry.
State the answer as a number, implicitly in %.

IN: Output % Inhibition @ 1 μM of O=C(NOCC1(CO)CC1)c1ccc(F)c(F)c1Nc1ccc(Cl)cc1F
OUT: 18.1

IN: // Input: Cc1cc(I)ccc1Nc1c(C(=O)NOCC(O)COc2ccccc2)cc(F)c(F)c1F (stereo not shown) . Output its % Inhibition @ 1 μM only.
OUT: 71.9

IN: Indicate its recorded % Inhibition @ 1 μM; the compound in question is CCC(O)CONC(=O)c1cc(Br)c(F)c(F)c1Nc1ccc(I)cc1F (stereo not shown)
OUT: 94.6

IN: Read the entry CCC(O)CONC(=O)c1cc(Cl)c(F)c(F)c1Nc1ccc(I)cc1C (stereo not shown) and write its reported % Inhibition @ 1 μM.
OUT: 93.4

IN: Identify measured % Inhibition @ 1 μM corresponding to O=C(NOCCC(O)CO)c1ccc(F)c(F)c1Nc1ccc(I)cc1Cl (stereo not shown)
OUT: 92.4

IN: Report % Inhibition @ 1 μM for CCC(O)CONC(=O)c1cc(Cl)c(F)c(F)c1Nc1ccc(F)cc1F (stereo not shown)
OUT: 62.8

IN: Recall and state the measured % Inhibition @ 1 μM for O=C(NOCC1(CO)CC1)c1cc(Br)c(F)c(F)c1Nc1ccc(I)cc1F .
OUT: 88.8

IN: Indicate the recorded % Inhibition @ 1 μM value for this compound: Cc1cc(I)ccc1Nc1c(C(=O)NOCC(O)COc2ccccc2)cc(Br)c(F)c1F (stereo not shown)
OUT: 83.3

IN: Return % Inhibition @ 1 μM for the following compound: CC(C)(CO)CONC(=O)c1cc(F)c(F)c(F)c1Nc1ccc(I)cc1Cl
OUT: 43.5

IN: Give % Inhibition @ 1 μM for CCC(O)CONC(=O)c1cc(F)c(F)c(F)c1Nc1ccc(I)cc1C (stereo not shown)
OUT: 81.6

IN: Please give measured % Inhibition @ 1 μM of the following entry: CCC(O)CONC(=O)c1ccc(F)c(F)c1Nc1ccc(F)cc1F (stereo not shown)
OUT: 66.7

IN: State its % Inhibition @ 1 μM for this compound: Cc1cc(I)ccc1Nc1c(C(=O)NOC(C)CO)cc(Br)c(F)c1F (stereo not shown)
OUT: 96.9

IN: Note % Inhibition @ 1 μM for the compound shown: CCC(O)CONC(=O)c1cc(Cl)c(F)c(F)c1Nc1ccc(I)cc1F (stereo not shown)
OUT: 97.3

###

tested on: MEK; experiment: Cellular Assay for Measuring MEK Inhibition (inhibition of ERK phosphorylation in C26 cells, Western blot); assay type: cell-based, murine; conditions: 1 μM; ERK phosphorylation in C26 cells
Test readout: % Inhibition @ 1 μM (%)
Note: unit % is implicit; provide only the numeric part.

IN: For the molecule O=C(NOCC1(CO)CC1)c1cc(F)c(F)cc1Nc1ccc(I)cc1F [Example 221] , give its reported % Inhibition @ 1 μM.
OUT: 92.4

IN: Supply % Inhibition @ 1 μM value. Item: O=C(NOCC(O)C(F)(F)F)c1ccc(F)c(F)c1Nc1ccc(F)cc1F (centres unmarked) [Example 212]
OUT: 20.1

IN: Give % Inhibition @ 1 μM for O=C(NOCC(O)COc1ccccc1)c1ccc(F)c(F)c1Nc1ccc(Cl)cc1F (centres unmarked) [Example 196]
OUT: 82.8

IN: Check the records and state % Inhibition @ 1 μM for CCC(O)CONC(=O)c1cc(F)c(F)cc1Nc1ccc(I)cc1F (centres unmarked) [Example 115]
OUT: 98.5

IN: Supply reported % Inhibition @ 1 μM belonging to this molecule: O=C(NOCC1(CO)CC1)c1ccc(F)c(F)c1Nc1ccc(Br)cc1F [Example 223]
OUT: 56.7
